These entries and their values trace back to ChEMBL document CHEMBL3751721.

- measured-on: DNA gyrase subunit B (Mycobacterium smegmatis) (UniProt P0C559)
- Sequence (P0C559 2-675 limits assumed): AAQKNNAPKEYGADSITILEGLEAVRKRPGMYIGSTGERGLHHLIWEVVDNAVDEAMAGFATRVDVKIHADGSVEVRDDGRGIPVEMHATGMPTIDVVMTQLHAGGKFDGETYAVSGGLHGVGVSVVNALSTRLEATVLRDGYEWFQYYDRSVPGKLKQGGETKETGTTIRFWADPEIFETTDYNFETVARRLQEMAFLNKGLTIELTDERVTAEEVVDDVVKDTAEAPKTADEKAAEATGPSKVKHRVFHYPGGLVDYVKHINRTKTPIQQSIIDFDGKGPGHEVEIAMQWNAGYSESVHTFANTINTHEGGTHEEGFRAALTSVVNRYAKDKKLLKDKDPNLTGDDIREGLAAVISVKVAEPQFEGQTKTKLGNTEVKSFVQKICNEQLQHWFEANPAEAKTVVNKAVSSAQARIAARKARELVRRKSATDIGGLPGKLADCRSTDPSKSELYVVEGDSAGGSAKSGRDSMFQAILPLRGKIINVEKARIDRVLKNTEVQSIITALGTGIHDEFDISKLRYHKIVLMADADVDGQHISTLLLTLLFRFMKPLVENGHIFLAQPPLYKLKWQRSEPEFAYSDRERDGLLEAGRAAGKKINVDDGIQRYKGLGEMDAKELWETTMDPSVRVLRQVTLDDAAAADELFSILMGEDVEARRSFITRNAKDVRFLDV
- assay-name: Inhibition of Mycobacterium smegmatis GyrB by ATPase assay
- cond: Mycolicibacterium smegmatis
Active and inactive are the calls of the source. The calls are words filed in the database; no cut-off is given here.
reported-property: inhibition

Example cases with answers are listed next.
molecular-string	reported-property	measured
O=S(=O)(Nc1ccc(Nc2c3ccccc3nc3ccccc23)cc1)c1ccccc1	inhibition	inactive
Cc1ccc(NC(=O)Nc2ccc(Nc3c4ccccc4nc4ccc(C)cc34)cc2)cc1	inhibition	inactive
Cc1ccc2nc3ccccc3c(Nc3ccc(NS(=O)(=O)c4ccc(Cl)cc4)cc3)c2c1	inhibition	inactive
Cc1ccc2nc3ccccc3c(Nc3ccc(NC(=S)Nc4ccccc4)cc3)c2c1	inhibition	inactive
S=C(Nc1ccccc1)Nc1ccc(Nc2c3ccccc3nc3ccc(Cl)cc23)cc1	inhibition	inactive

Then this compound:
get_value(item= `S=C(Nc1ccc(Cl)cc1)Nc1ccc(Nc2c3ccccc3nc3ccc(Cl)cc23)cc1` , readout=inhibition) returns inactive
